B1: library; a variant is named by its letters at N, in order (parent)
chain: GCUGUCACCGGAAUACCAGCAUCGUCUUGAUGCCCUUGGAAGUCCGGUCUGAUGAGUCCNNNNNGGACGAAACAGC

Variants of: B1
Test: FACS-Seq fitted mean relative fluorescence mCherry/BFP without ligand (log10 relative fluorescence); higher = higher reporter protein expression
Conditions: HEK293T, ligand present: no
Kindly state FACS-Seq fitted mean (log10) for each of the entries shown.
Write the value as a bare number.

Which FACS-Seq fitted mean (log10) value belongs to GCUGUCACCGGAAUACCAGCAUCGUCUUGAUGCCCUUGGAAGUCCGGUCUGAUGAGUCCGCAUUGGACGAAACAGC [GCAUU] ? 0.42

Name the recorded FACS-Seq fitted mean (log10) for GCUGUCACCGGAAUACCAGCAUCGUCUUGAUGCCCUUGGAAGUCCGGUCUGAUGAGUCCCAUCCGGACGAAACAGC [CAUCC] . 0.98

GET /values?readout=FACS-Seq fitted mean (log10)&item= GCUGUCACCGGAAUACCAGCAUCGUCUUGAUGCCCUUGGAAGUCCGGUCUGAUGAGUCCGAAAUGGACGAAACAGC [GAAAU] 0.796

FACS-Seq fitted mean (log10) for GCUGUCACCGGAAUACCAGCAUCGUCUUGAUGCCCUUGGAAGUCCGGUCUGAUGAGUCCCAAUUGGACGAAACAGC [CAAUU] ? 0.59

I am curious: what FACS-Seq fitted mean (log10) value has been reported for GCUGUCACCGGAAUACCAGCAUCGUCUUGAUGCCCUUGGAAGUCCGGUCUGAUGAGUCCUUAGCGGACGAAACAGC [UUAGC] ? 0.886

Fill blank: measured FACS-Seq fitted mean (log10) of the variant GCUGUCACCGGAAUACCAGCAUCGUCUUGAUGCCCUUGGAAGUCCGGUCUGAUGAGUCCAGAGUGGACGAAACAGC [AGAGU] is ____. 0.387

Would you kindly share the measured FACS-Seq fitted mean (log10) for GCUGUCACCGGAAUACCAGCAUCGUCUUGAUGCCCUUGGAAGUCCGGUCUGAUGAGUCCAGCACGGACGAAACAGC [AGCAC] ? 0.712

Param item = GCUGUCACCGGAAUACCAGCAUCGUCUUGAUGCCCUUGGAAGUCCGGUCUGAUGAGUCCAACUCGGACGAAACAGC [AACUC] ; retrieve measured FACS-Seq fitted mean (log10). 0.94

What FACS-Seq fitted mean (log10) value was documented for this variant, GCUGUCACCGGAAUACCAGCAUCGUCUUGAUGCCCUUGGAAGUCCGGUCUGAUGAGUCCAAAACGGACGAAACAGC [AAAAC] ? 0.834

Dear colleague, I am looking for the recorded FACS-Seq fitted mean (log10) of the following variant: GCUGUCACCGGAAUACCAGCAUCGUCUUGAUGCCCUUGGAAGUCCGGUCUGAUGAGUCCAGACGGGACGAAACAGC [AGACG] 0.74

Query: FACS-Seq fitted mean (log10); subject: GCUGUCACCGGAAUACCAGCAUCGUCUUGAUGCCCUUGGAAGUCCGGUCUGAUGAGUCCGAUGUGGACGAAACAGC [GAUGU] 0.101

Query (variant): GCUGUCACCGGAAUACCAGCAUCGUCUUGAUGCCCUUGGAAGUCCGGUCUGAUGAGUCCAGUUAGGACGAAACAGC [AGUUA] ; field requested: FACS-Seq fitted mean (log10) 0.892

Look up FACS-Seq fitted mean (log10): GCUGUCACCGGAAUACCAGCAUCGUCUUGAUGCCCUUGGAAGUCCGGUCUGAUGAGUCCCAUUUGGACGAAACAGC [CAUUU] 0.805

Endpoint output: FACS-Seq fitted mean (log10) of GCUGUCACCGGAAUACCAGCAUCGUCUUGAUGCCCUUGGAAGUCCGGUCUGAUGAGUCCACGUGGGACGAAACAGC [ACGUG] . Value? 0.735

Returns the measured FACS-Seq fitted mean (log10) for the input variant. Input: GCUGUCACCGGAAUACCAGCAUCGUCUUGAUGCCCUUGGAAGUCCGGUCUGAUGAGUCCACCUGGGACGAAACAGC [ACCUG] 1.02

Entry under review: GCUGUCACCGGAAUACCAGCAUCGUCUUGAUGCCCUUGGAAGUCCGGUCUGAUGAGUCCAGCGUGGACGAAACAGC [AGCGU] . Reported FACS-Seq fitted mean (log10)? -0.0881

Could you share which FACS-Seq fitted mean (log10) value was measured for GCUGUCACCGGAAUACCAGCAUCGUCUUGAUGCCCUUGGAAGUCCGGUCUGAUGAGUCCAAGCGGGACGAAACAGC [AAGCG] ? 0.683

# lookup: FACS-Seq fitted mean (log10) of GCUGUCACCGGAAUACCAGCAUCGUCUUGAUGCCCUUGGAAGUCCGGUCUGAUGAGUCCAUUAGGGACGAAACAGC [AUUAG] 0.738

Request the reported FACS-Seq fitted mean (log10) associated with GCUGUCACCGGAAUACCAGCAUCGUCUUGAUGCCCUUGGAAGUCCGGUCUGAUGAGUCCACCCAGGACGAAACAGC [ACCCA] 0.9

What measured FACS-Seq fitted mean (log10) goes with GCUGUCACCGGAAUACCAGCAUCGUCUUGAUGCCCUUGGAAGUCCGGUCUGAUGAGUCCUCGCCGGACGAAACAGC [UCGCC] ? 1.03

Reported FACS-Seq fitted mean (log10), variant GCUGUCACCGGAAUACCAGCAUCGUCUUGAUGCCCUUGGAAGUCCGGUCUGAUGAGUCCAUUGCGGACGAAACAGC [AUUGC] : ____ 1.19

Give its FACS-Seq fitted mean (log10) value. Item: GCUGUCACCGGAAUACCAGCAUCGUCUUGAUGCCCUUGGAAGUCCGGUCUGAUGAGUCCAUCUCGGACGAAACAGC [AUCUC] 0.832

I would be grateful if you could share the reported FACS-Seq fitted mean (log10) for GCUGUCACCGGAAUACCAGCAUCGUCUUGAUGCCCUUGGAAGUCCGGUCUGAUGAGUCCUUUGAGGACGAAACAGC [UUUGA] . 0.62

Returns the measured FACS-Seq fitted mean (log10) for the input variant. Input: GCUGUCACCGGAAUACCAGCAUCGUCUUGAUGCCCUUGGAAGUCCGGUCUGAUGAGUCCUGACUGGACGAAACAGC [UGACU] 1.21

Fill blank: measured FACS-Seq fitted mean (log10) of the variant GCUGUCACCGGAAUACCAGCAUCGUCUUGAUGCCCUUGGAAGUCCGGUCUGAUGAGUCCUGAUCGGACGAAACAGC [UGAUC] is ____. 0.156

I am curious: what FACS-Seq fitted mean (log10) value has been reported for GCUGUCACCGGAAUACCAGCAUCGUCUUGAUGCCCUUGGAAGUCCGGUCUGAUGAGUCCCUCUUGGACGAAACAGC [CUCUU] ? 0.739

For the variant shown here, GCUGUCACCGGAAUACCAGCAUCGUCUUGAUGCCCUUGGAAGUCCGGUCUGAUGAGUCCCGCGAGGACGAAACAGC [CGCGA] , give the reported FACS-Seq fitted mean (log10). 0.995

State the recorded FACS-Seq fitted mean (log10) for this entry: GCUGUCACCGGAAUACCAGCAUCGUCUUGAUGCCCUUGGAAGUCCGGUCUGAUGAGUCCUAUGGGGACGAAACAGC [UAUGG] 0.926

If you can, please state the reported FACS-Seq fitted mean (log10) value of GCUGUCACCGGAAUACCAGCAUCGUCUUGAUGCCCUUGGAAGUCCGGUCUGAUGAGUCCUAAUCGGACGAAACAGC [UAAUC] . 0.913

Any idea what its FACS-Seq fitted mean (log10) is? The variant is GCUGUCACCGGAAUACCAGCAUCGUCUUGAUGCCCUUGGAAGUCCGGUCUGAUGAGUCCAGUUCGGACGAAACAGC [AGUUC] 0.981

Quick one: FACS-Seq fitted mean (log10) for GCUGUCACCGGAAUACCAGCAUCGUCUUGAUGCCCUUGGAAGUCCGGUCUGAUGAGUCCCGUGAGGACGAAACAGC [CGUGA] ? -0.0723

Looking for the measured FACS-Seq fitted mean (log10) of GCUGUCACCGGAAUACCAGCAUCGUCUUGAUGCCCUUGGAAGUCCGGUCUGAUGAGUCCGACUUGGACGAAACAGC [GACUU] , can you help? 0.702

Give its FACS-Seq fitted mean (log10) value. Item: GCUGUCACCGGAAUACCAGCAUCGUCUUGAUGCCCUUGGAAGUCCGGUCUGAUGAGUCCAUCAAGGACGAAACAGC [AUCAA] 1.02
